Test name: Plasma clearance in rats
Assay type: ADME, organism-based
Cond: rat
Recorded metric: clearance (mL/min/kg)
Number in mL/min/kg, nothing else.

IN: Dear colleague, I am looking for the recorded clearance of the following molecule: CCN1c2ncc(CSc3cc(C)nc(C)c3)cc2C(=O)Nc2c(C)cc(Cl)nc21
OUT: 57

====

Collected IC50 values appear next to each entry.
Study target: Cytochrome P450 3A4 (Homo sapiens, UniProt P08684)
Sequence (P08684 whole entry): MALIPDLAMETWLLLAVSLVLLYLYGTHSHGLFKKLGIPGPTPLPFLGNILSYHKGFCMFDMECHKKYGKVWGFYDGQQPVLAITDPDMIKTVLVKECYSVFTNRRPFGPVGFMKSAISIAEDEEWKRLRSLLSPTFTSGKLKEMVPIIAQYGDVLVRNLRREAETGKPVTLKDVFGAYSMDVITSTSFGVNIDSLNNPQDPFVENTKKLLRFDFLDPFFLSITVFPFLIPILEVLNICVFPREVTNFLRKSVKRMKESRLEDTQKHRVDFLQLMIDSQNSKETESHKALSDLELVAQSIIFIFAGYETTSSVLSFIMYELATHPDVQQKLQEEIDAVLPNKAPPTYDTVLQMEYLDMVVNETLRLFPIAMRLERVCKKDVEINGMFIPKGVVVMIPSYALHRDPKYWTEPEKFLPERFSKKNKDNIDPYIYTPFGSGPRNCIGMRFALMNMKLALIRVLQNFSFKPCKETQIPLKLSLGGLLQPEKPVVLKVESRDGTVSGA
Test name: Inhibition of CYP450 (Cytochrome P450) 3A4 with fluorogenic substrate BFC
Type: ADME
Number in nM, nothing else.

Smiles notation	Recorded metric	Readout unit	Value measured
CCN1c2ncc(CSc3cc(C)nc(C)c3)cc2C(=O)Nc2c(C)cc(F)nc21	IC50	nM	2500

IN: // fetch Cytochrome P450 3A4 (Homo sapiens, UniProt P08684) IC50 for CCN1c2ncc(CSc3cc(C)nc(C)c3)cc2C(=O)Nc2c(C)cc(Cl)nc21
OUT: 2300

IN: // fetch Cytochrome P450 3A4 (Homo sapiens, UniProt P08684) IC50 for CCN1c2ncc(CSc3cc(C)nc(C)c3)cc2C(=O)Nc2c(C)ccnc21
OUT: 1600

====

System: Human immunodeficiency virus 1
Test name: Effective concentration against mutant K103N/Y181C of HIV-1
Assay type: functional, organism-based
Recorded metric: EC50 (nM)
Number in nM, nothing else.

Consider the worked cases shown below.
Smiles notation	Value measured
CCN1c2ncc(CSc3cc(C)nc(C)c3)cc2C(=O)Nc2c(C)cc(F)nc21	21
CCN1c2ncc(CSc3cc(C)nc(C)c3)cc2C(=O)Nc2c(C)ccnc21	12
Cc1cc(SCc2cnc3c(c2)C(=O)Nc2c(C)cc(Cl)nc2N3C2CC2)cc(C)n1	104

Turning to the following compound.
IN: Dear colleague, I am looking for the recorded EC50 of the following compound: CCN1c2ncc(CSc3cc(C)nc(C)c3)cc2C(=O)Nc2c(C)cc(Cl)nc21
OUT: 14

====

Test name: Maximum concentration was evaluated in rats
Type: ADME, organism-based
Cond: rat, in vivo
Recorded metric: Cmax (nM)
Number in nM, nothing else.

IN: Dear colleague, I am looking for the recorded Cmax of the following molecule: CCN1c2ncc(CSc3cc(C)nc(C)c3)cc2C(=O)Nc2c(C)cc(Cl)nc21
OUT: 800

====

Study target: Cytochrome P450 1A2 (Homo sapiens, UniProt P05177)
Sequence (P05177 whole entry): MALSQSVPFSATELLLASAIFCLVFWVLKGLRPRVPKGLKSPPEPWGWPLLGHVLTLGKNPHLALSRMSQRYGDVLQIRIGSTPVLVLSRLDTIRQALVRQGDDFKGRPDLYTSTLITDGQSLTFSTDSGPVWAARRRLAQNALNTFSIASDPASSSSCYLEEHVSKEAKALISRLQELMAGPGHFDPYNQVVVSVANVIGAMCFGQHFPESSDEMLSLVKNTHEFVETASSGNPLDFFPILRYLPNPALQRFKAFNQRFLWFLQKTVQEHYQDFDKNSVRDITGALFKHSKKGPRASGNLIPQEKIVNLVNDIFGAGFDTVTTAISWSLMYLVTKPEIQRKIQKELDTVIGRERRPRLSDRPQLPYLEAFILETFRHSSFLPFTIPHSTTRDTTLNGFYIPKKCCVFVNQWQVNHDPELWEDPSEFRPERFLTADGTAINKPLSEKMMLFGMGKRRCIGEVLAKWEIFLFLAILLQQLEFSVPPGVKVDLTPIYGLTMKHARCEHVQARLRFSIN
Test name: Inhibition of cytochrome P450 1A2
Format: ADME
Recorded metric: IC50 (µM)
Number in µM, nothing else.

Smiles notation	Study target	Value measured
CCN1c2ncc(CSc3cc(C)nc(C)c3)cc2C(=O)Nc2c(C)cc(Cl)nc21	Cytochrome P450 1A2 (Homo sapiens, UniProt P05177)	23

Turning to the following compound.
IN: Dear colleague, I am looking for the recorded IC50 of the following compound: CCN1c2ncc(CSc3cc(C)nc(C)c3)cc2C(=O)Nc2c(C)cc(F)nc21
OUT: 26

====

Study target: Human immunodeficiency virus type 1 reverse transcriptase (Human immunodeficiency virus 1, UniProt Q72547)
pIC50: −log10 of the molar value.
Use 1 when the recorded pIC50 is no lower than 8; use 0 when it is lower.

Smiles notation	Category
CCN1c2ncc(CSc3ccnc(C)c3)cc2C(=O)Nc2c(C)cc(Cl)nc21	0
CCN1c2ncc(CSc3cc(C)nc(C)c3)cc2C(=O)Nc2c(C)ccnc21	1

IN: Record CCN1c2ncc(CSc3cncnc3)cc2C(=O)Nc2c(C)cc(Cl)nc21 ; criterion: pIC50 no lower than 8. Met?
OUT: 0

IN: Record CCN1c2ncc(CSc3ccncc3)cc2C(=O)Nc2c(C)cc(Cl)nc21 ; criterion: pIC50 no lower than 8. Met?
OUT: 1

IN: Record CCN1c2ncc(CSc3ccncc3)cc2C(=O)N(C)c2ccc(Cl)nc21 ; criterion: pIC50 no lower than 8. Met?
OUT: 1
